# System under test: Type-2 angiotensin II receptor (Homo sapiens, UniProt P50052)
# Sequence (P50052 whole entry): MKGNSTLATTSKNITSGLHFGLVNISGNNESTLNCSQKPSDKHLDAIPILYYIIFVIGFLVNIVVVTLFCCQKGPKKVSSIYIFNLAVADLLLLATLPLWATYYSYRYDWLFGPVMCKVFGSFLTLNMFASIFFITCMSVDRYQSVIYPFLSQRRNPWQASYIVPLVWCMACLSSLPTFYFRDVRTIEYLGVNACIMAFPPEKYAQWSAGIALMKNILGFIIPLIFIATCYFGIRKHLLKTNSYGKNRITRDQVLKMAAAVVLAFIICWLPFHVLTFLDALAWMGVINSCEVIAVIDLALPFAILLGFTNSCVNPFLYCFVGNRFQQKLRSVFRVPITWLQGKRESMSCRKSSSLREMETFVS
# Assay comment: Displacement of [125-I]-[Sar1, Ile8] from recombinant human AT2R transfected in human HEK293 cells incubated for 2 hrs by liquid scintillation counter analysis
Numbered stars: 1 amine (or outer) side, 2 acyl side, 3 side chain; on linkers, the order of the positions; unused ones are H or OH. Square brackets hold non-standard residues; d marks the D form. Peptide text beside a SMILES is read from it. X1 = O=C([C@@H]1Cc2cc(O)ccc2CN1[*:1])[*:2]; Tic(7-OH) = O=C(O)[C@@H]1Cc2ccc(O)cc2CN1
Below, each of the compounds is paired with its reported IC50 value.
Note to self: number, then unit, no commentary.

CC[C@H](C)[C@H](NC(=O)[C@H](Cc1ccc(O)cc1)NC(=O)[C@@H](NC(=O)[C@@H](N)CCCNC(=N)N)C(C)C)C(=O)N1Cc2cc(O)ccc2C[C@H]1C(=O)N1CCC[C@H]1C(=O)N[C@@H](Cc1ccccc1)C(=O)O (H-RVYI[Tic(7-OH)]PF-OH) | 119 nM
CC[C@H](C)[C@H](NC(=O)[C@H](Cc1ccc(O)cc1)NC(=O)[C@@H](NC(=O)[C@H](CCCNC(=N)N)NC(=O)[C@@H](N)CC(=O)O)C(C)C)C(=O)N1Cc2cc(O)ccc2C[C@H]1C(=O)N1CCC[C@H]1C(=O)N[C@@H](Cc1ccccc1)C(=O)O (H-DRVYI[Tic(7-OH)]PF-OH) | 89.2 nM
CC[C@H](C)[C@H](NC(=O)[C@H](Cc1ccc(O)cc1)NC(=O)[C@@H](NC(=O)[C@H](CCCNC(=N)N)NC(=O)[C@@H](N)CC(=O)O)C(C)C)C(=O)N[C@H]1Cc2c([nH]c3ccccc23)CN(CC(=O)N[C@@H](Cc2ccccc2)C(=O)O)C1=O | 45.7 nM
CC[C@H](C)[C@H](NC(=O)[C@H](Cc1ccc(O)cc1)NC(=O)[C@@H](NC(=O)[C@@H](N)CCCNC(=N)N)C(C)C)C(=O)N1Cc2ccc(O)cc2C[C@H]1C(=O)N1CCC[C@H]1C(=O)N[C@@H](Cc1ccccc1)C(=O)O (H-RVYI[X1]PF-OH) | 315 nM

**Query** For CC[C@H](C)[C@H](NC(=O)[C@H](Cc1ccc(O)cc1)NC(=O)[C@@H](NC(=O)[C@@H](N)CCCNC(=N)N)C(C)C)C(=O)N[C@H]1Cc2c([nH]c3ccccc23)CN(CC(=O)N[C@@H](Cc2ccccc2)C(=O)O)C1=O , what is its reported IC50?
**Result** 107 nM

**Query** For CC[C@H](C)[C@H](NC(=O)[C@H](Cc1ccc(O)cc1)NC(=O)[C@@H](NC(=O)[C@H](CCCNC(=N)N)NC(=O)[C@@H](N)CC(=O)O)C(C)C)C(=O)N1Cc2ccc(O)cc2C[C@H]1C(=O)N1CCC[C@H]1C(=O)N[C@@H](Cc1ccccc1)C(=O)O (H-DRVYI[X1]PF-OH) , what is its reported IC50?
**Result** 59.3 nM

* * *

# System under test: Type-1 angiotensin II receptor (Homo sapiens, UniProt P30556)
# Sequence (P30556 whole entry): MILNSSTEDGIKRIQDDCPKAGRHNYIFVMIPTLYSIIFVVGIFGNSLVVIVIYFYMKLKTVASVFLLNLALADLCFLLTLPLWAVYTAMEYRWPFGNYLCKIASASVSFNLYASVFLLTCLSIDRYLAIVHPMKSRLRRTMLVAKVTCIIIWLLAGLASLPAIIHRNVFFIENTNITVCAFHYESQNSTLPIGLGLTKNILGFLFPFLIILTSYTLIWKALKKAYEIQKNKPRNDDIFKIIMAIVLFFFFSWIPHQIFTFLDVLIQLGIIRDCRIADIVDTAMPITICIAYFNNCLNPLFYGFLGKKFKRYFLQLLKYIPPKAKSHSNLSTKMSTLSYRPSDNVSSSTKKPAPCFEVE
# Assay comment: Displacement of [125-I]-[Sar1, Ile8] from recombinant human AT1R transfected in human HEK293 cells incubated for 2 hrs by liquid scintillation counter analysis
Numbered stars: 1 amine (or outer) side, 2 acyl side, 3 side chain; on linkers, the order of the positions; unused ones are H or OH. Square brackets hold non-standard residues; d marks the D form. Peptide text beside a SMILES is read from it. X1 = O=C([C@@H]1Cc2cc(O)ccc2CN1[*:1])[*:2]
Below, each of the compounds is paired with its reported IC50 value.
Entry rule: numbers only, all in nM.

CC[C@H](C)[C@H](NC(=O)[C@H](Cc1ccc(O)cc1)NC(=O)[C@@H](NC(=O)[C@@H](N)CCCNC(=N)N)C(C)C)C(=O)N1Cc2ccc(O)cc2C[C@H]1C(=O)N1CCC[C@H]1C(=O)N[C@@H](Cc1ccccc1)C(=O)O (H-RVYI[X1]PF-OH) | 2010

**Query** For CC[C@H](C)[C@H](NC(=O)[C@H](Cc1ccc(O)cc1)NC(=O)[C@@H](NC(=O)[C@H](CCCNC(=N)N)NC(=O)[C@@H](N)CC(=O)O)C(C)C)C(=O)N1Cc2ccc(O)cc2C[C@H]1C(=O)N1CCC[C@H]1C(=O)N[C@@H](Cc1ccccc1)C(=O)O (H-DRVYI[X1]PF-OH) , what is its reported IC50?
**Result** 174
